Measured abundance fitness values are reported for all entries that follow.
B1: Intersectin-2, residues 1129 to 1183; numbered along this chain, Q9NZM3 (parent)
chain: VCQVIAMYDYAANNEDELSFSKGQLINVMNKDDPDWWQGEINGVTGLFPSNYVKM

variants of: B1; assay: abundance fitness (aPCA) (normalised: wild type 0, dead -1); higher = more abundant; growth selection in yeast, the domain comes from the species named; conditions: Homo sapiens
observation.type: abundance fitness

{"columns": ["chain.sequence", "value.measured"],
 "data": [
  ["VCQVIAMYDYAANNEDELSFSKGQLINVMNKDDPDWWQGEINGVTWLFPSNYVKM", -0.92],
  ["VCQVIAMYDYAANNEDELSFSKGQLINVMNKDDPDWWQGEINGVTGLFPSNIVKM", -0.023],
  ["VCQVIAMYDYDANNEDELSFSKGQLINVMNKDDPDWWQGEINGVTGLFPSNYVKM", 0.007],
  ["VCQVIAMYDYAANNEDELSFSKRQLINVMNKDDPDWWQGEINGVTGLFPSNYVKM", -0.195],
  ["VCQVIAMYDYAANNEDELSFSKGQLINVMNKDDPDWWQGEINGVTGLFPSNYVAM", -0.119],
  ["VCQVIAMYDYAANNEDELIFSKGQLINVMNKDDPDWWQGEINGVTGLFPSNYVKM", -0.515],
  ["VCQVIAMYDYAANNEDELSFSKGQLTNVMNKDDPDWWQGEINGVTGLFPSNYVKM", -0.88],
  ["VCQVIAMYDYAANNSDELSFSKGQLINVMNKDDPDWWQGEINGVTGLFPSNYVKM", -0.01],
  ["VCQHIAMYDYAANNEDELSFSKGQLINVMNKDDPDWWQGEINGVTGLFPSNYVKM", -0.205],
  ["VCQTIAMYDYAANNEDELSFSKGQLINVMNKDDPDWWQGEINGVTGLFPSNYVKM", -0.079],
  ["VCQVILMYDYAANNEDELSFSKGQLINVMNKDDPDWWQGEINGVTGLFPSNYVKM", -1.02],
  ["VCQVIAMYDYAANNEDELSFSKGQLINVMNKDDPDWWQGEINGVTGLFPSNYVCM", -0.12],
  ["VCQVIAMYDYAANNEDELSFSKGQLINVMNKDDPDWWQGEINGDTGLFPSNYVKM", -0.117],
  ["VCQVIAMYDYAWNNEDELSFSKGQLINVMNKDDPDWWQGEINGVTGLFPSNYVKM", -0.685],
  ["VCQVIAMYDYAANNEDELSQSKGQLINVMNKDDPDWWQGEINGVTGLFPSNYVKM", -0.844],
  ["VCQVIAMYDYAANNEDELSFSKGQLINVMNKDDPDWWQGEINGATGLFPSNYVKM", -0.006],
  ["VCQVIAMYDYEANNEDELSFSKGQLINVMNKDDPDWWQGEINGVTGLFPSNYVKM", 0.025],
  ["NCQVIAMYDYAANNEDELSFSKGQLINVMNKDDPDWWQGEINGVTGLFPSNYVKM", -0.247],
  ["VCQVIAMYDYAANNEDELSFSKGQLINVMNKDAPDWWQGEINGVTGLFPSNYVKM", -0.065],
  ["VCQVIAMYDYAANNEDELSFSKGQLIQVMNKDDPDWWQGEINGVTGLFPSNYVKM", 0.012],
  ["VCQVIAMYDYAANNEDELSFSKGQLINVMNKDDPPWWQGEINGVTGLFPSNYVKM", -0.39],
  ["VCQVIAMYEYAANNEDELSFSKGQLINVMNKDDPDWWQGEINGVTGLFPSNYVKM", -0.117]
]}
